- Test system: Respiratory syncytial virus
- Protocol notes: Antiviral activity against Respiratory syncytial virus infected human HeLa cells assessed as reduction of virus-induced cytopathic effect after 3 days by colorimetric formazan-based MTS assay
- Type: functional, organism-based
- Setup conditions: 72 h
pEC50: −log10 of the molar value.
Measured property: pEC50

(Q) Given the entry CCN(CC)CN1C(=O)/C(=N/NC(N)=S)c2cc(Cl)ccc21 , report its measured pEC50.
(A) < 4.00

(Q) Given the entry CCN(CC)CN1C(=O)/C(=N/NC(=S)Nc2ccc(Cl)cc2)c2cc(Cl)ccc21 , report its measured pEC50.
(A) < 4.70

(Q) Given the entry CCN(CC)CN1C(=O)/C(=N/NC(=S)Nc2ccccc2)c2ccccc21 , report its measured pEC50.
(A) < 4.70

(Q) Given the entry CCN(CC)CN1C(=O)/C(=N/NC(=S)Nc2ccccc2)c2cc(Cl)ccc21 , report its measured pEC50.
(A) < 4.70

(Q) Given the entry NC(=O)c1ncn([C@@H]2O[C@H](CO)[C@@H](O)[C@H]2O)n1 , report its measured pEC50.
(A) 5.34

(Q) Given the entry CCN(CC)CN1C(=O)/C(=N/NC(=S)Nc2ccc(C)cc2)c2ccccc21 , report its measured pEC50.
(A) < 4.70

---

# zone of inhibition at 50 µg/mL values compiled below
- Test system: Bacillus subtilis
- Protocol notes: Antibacterial activity against Bacillus subtilis assessed as growth inhibition at 50 ug/ml by cup-plate method (reference value: 8 to 10 mm)
- Format: functional
- Setup conditions: read-out: DIZ
Field format: number, assumed mm, no unit text.

These solved cases illustrate the format of a correct answer.
| Molecule | zone of inhibition at 50 µg/mL, mm |
| --- | --- |
| CCN(CC)CN1C(=O)/C(=N/NC(=S)Nc2ccccc2)c2cc(Cl)ccc21 | 11 |
| CCN(CC)CN1C(=O)/C(=N/NC(N)=S)c2cc(Cl)ccc21 | 11 |
| CC1COc2c(N3CCN(C)CC3)c(F)cc3c(=O)c(C(=O)O)cn1c23 (stereo unspecified) | 31 |
| CCN(CC)CN1C(=O)/C(=N/NC(=S)Nc2ccc(C)cc2)c2cc(Cl)ccc21 | 11 |
| CCN(CC)CN1C(=O)/C(=N/NC(=S)Nc2ccc(Cl)cc2)c2cc(Cl)ccc21 | 21 |

(Q) Given the entry CCN(CC)CN1C(=O)/C(=N/NC(=S)Nc2ccc(OC)cc2)c2cc(Cl)ccc21 , report its measured zone of inhibition at 50 µg/mL.
(A) 11

(Q) Given the entry CCN(CC)CN1C(=O)/C(=N/NC(=S)Nc2ccc(Cl)cc2)c2ccccc21 , report its measured zone of inhibition at 50 µg/mL.
(A) 21

(Q) Given the entry CCN(CC)CN1C(=O)/C(=N/NC(=S)Nc2ccccc2)c2ccccc21 , report its measured zone of inhibition at 50 µg/mL.
(A) 11

---

- Protocol notes: Cytotoxicity against Chlorocebus aethiops (African green monkey) Vero cells assessed as change in cellular morphology
- Format: cell-based
- Setup conditions: chlorocebus sabaeus
# MCC values compiled below
Field format: number, assumed µM, no unit text.

These solved cases illustrate the format of a correct answer.
| Smiles input | Unit abbreviation | MCC |
| --- | --- | --- |
| CCN(CC)CN1C(=O)/C(=N/NC(=S)Nc2ccc(OC)cc2)c2ccccc21 | µM | 4 |
| CCN(CC)CN1C(=O)/C(=N/NC(=S)Nc2ccc(C)cc2)c2ccccc21 | µM | 100 |

(Q) Given the entry CCN(CC)CN1C(=O)/C(=N/NC(=S)Nc2ccccc2)c2cc(Cl)ccc21 , report its measured MCC.
(A) 100

(Q) Given the entry CCN(CC)CN1C(=O)/C(=N/NC(=S)Nc2ccc(Cl)cc2)c2cc(Cl)ccc21 , report its measured MCC.
(A) 100

(Q) Given the entry CCN(CC)CN1C(=O)/C(=N/NC(=S)Nc2ccc(OC)cc2)c2cc(Cl)ccc21 , report its measured MCC.
(A) 4

(Q) Given the entry CCN(CC)CN1C(=O)/C(=N/NC(=S)Nc2ccc(Cl)cc2)c2ccccc21 , report its measured MCC.
(A) 20

(Q) Given the entry CCN(CC)CN1C(=O)/C(=N/NC(=S)Nc2ccccc2)c2ccccc21 , report its measured MCC.
(A) 100

---

- Tested on: Coxsackievirus B4
- Protocol notes: Antiviral activity against Human coxsackievirus B4 infected African green monkey Vero cells assessed as reduction of virus-induced cytopathic effect after 3 days by colorimetric formazan-based MTS assay
- Type: functional, organism-based
- Setup conditions: Enterovirus B, 72 h
pEC50: −log10 of the molar value.
Measured property: pEC50

These solved cases illustrate the format of a correct answer.
| Compound | pEC50 |
| --- | --- |
| CCN(CC)CN1C(=O)/C(=N/NC(=S)Nc2ccccc2)c2cc(Cl)ccc21 | < 4.70 |
| CCN(CC)CN1C(=O)/C(=N/NC(N)=S)c2ccccc21 | < 4.00 |
| CCN(CC)CN1C(=O)/C(=N/NC(=S)Nc2ccccc2)c2ccccc21 | < 4.70 |
| CCN(CC)CN1C(=O)/C(=N/NC(N)=S)c2cc(Cl)ccc21 | < 4.00 |
| CCN(CC)CN1C(=O)/C(=N/NC(=S)Nc2ccc(Cl)cc2)c2ccccc21 | < 5.40 |
| NC(=O)c1ncn([C@@H]2O[C@H](CO)[C@@H](O)[C@H]2O)n1 | < 3.60 |

(Q) Given the entry Nc1ncnc2c1ncn2C[C@H](O)CO [(S)-DHPA] , report its measured pEC50.
(A) < 3.60

---

# MCC values compiled below
- Protocol notes: Cytotoxicity against MDCK cells assessed as change in cellular morphology
- Type: cell-based, Canis lupus familiaris
- Setup conditions: dog, MDCK cells
Field format: number, assumed µM, no unit text.

These solved cases illustrate the format of a correct answer.
| Compound | Numeric result |
| --- | --- |
| CCN(CC)CN1C(=O)/C(=N/NC(=S)Nc2ccc(C)cc2)c2cc(Cl)ccc21 | 4 |
| CCN(CC)CN1C(=O)/C(=N/NC(=S)Nc2ccccc2)c2ccccc21 | 0.8 |
| CCN(CC)CN1C(=O)/C(=N/NC(=S)Nc2ccc(C)cc2)c2ccccc21 | 0.8 |
| CC(N)C12CC3CC(CC(C3)C1)C2 (stereo not given) [RIMANTADINE] | 500 |

(Q) Given the entry CCN(CC)CN1C(=O)/C(=N/NC(=S)Nc2ccc(Cl)cc2)c2ccccc21 , report its measured MCC.
(A) 0.8

(Q) Given the entry CCN(CC)CN1C(=O)/C(=N/NC(N)=S)c2ccccc21 , report its measured MCC.
(A) 100

(Q) Given the entry CCN(CC)CN1C(=O)/C(=N/NC(=S)Nc2ccc(OC)cc2)c2ccccc21 , report its measured MCC.
(A) 4

---

# EC50 values compiled below
- System: Human alphaherpesvirus 1
- Protocol notes: Antiviral activity against acyclovir-resistant thymidine kinase negative Human herpesvirus 1 strain KOS infected human HEL cells assessed as reduction of virus-induced cytopathic effect after 3 days by colorimetric formazan-based MTS assay
- Type: functional, organism-based
- Setup conditions: Human alphaherpesvirus 1, KOS, 72 h

| Compound | EC50 |
| --- | --- |
| CCN(CC)CN1C(=O)/C(=N/NC(N)=S)c2cc(Cl)ccc21 | > 100 µM |
| CCN(CC)CN1C(=O)/C(=N/NC(=S)Nc2ccccc2)c2cc(Cl)ccc21 | > 20 µM |
| CCN(CC)CN1C(=O)/C(=N/NC(=S)Nc2ccc(C)cc2)c2ccccc21 | ≥ 20 µM |
| Nc1nc2c(ncn2COC(CO)CO)c(=O)[nH]1 [GANCICLOVIR] | ≥ 20 µM |

Please turn your attention to the following entry.
(Q) Given the entry Nc1ccn(C[C@@H](CO)OCP(=O)(O)O)c(=O)n1 [CIDOFOVIR] , report its measured EC50.
(A) 6 µM

---

- Tested on: MDCK
- Protocol notes: Cytotoxicity against MDCK cells assessed as change in cellular morphology
- Assay type: cell-based, Canis lupus familiaris
- Setup conditions: dog, mdck
# if measured CC50 < 2000 nM: true  # else: false

| Molecule | Cat |
| --- | --- |
| CCN(CC)CN1C(=O)/C(=N/NC(=S)Nc2ccc(C)cc2)c2cc(Cl)ccc21 | false |
| CCN(CC)CN1C(=O)/C(=N/NC(=S)Nc2ccccc2)c2ccccc21 | true |
| CCN(CC)CN1C(=O)/C(=N/NC(=S)Nc2ccccc2)c2cc(Cl)ccc21 | false |

(Q) Criterion: CC50 strictly below 2000 nM. Is it met by CC(N)C12CC3CC(CC(C3)C1)C2 (configuration not stated) ?
(A) false

(Q) Criterion: CC50 strictly below 2000 nM. Is it met by CCN(CC)CN1C(=O)/C(=N/NC(=S)Nc2ccc(C)cc2)c2ccccc21 ?
(A) true

(Q) Criterion: CC50 strictly below 2000 nM. Is it met by CCN(CC)CN1C(=O)/C(=N/NC(N)=S)c2cc(Cl)ccc21 ?
(A) false

(Q) Criterion: CC50 strictly below 2000 nM. Is it met by CCN(CC)CN1C(=O)/C(=N/NC(=S)Nc2ccc(Cl)cc2)c2cc(Cl)ccc21 ?
(A) false
